System: estrogen receptor (ER)
Test: ER-mediated luciferase reporter induction in T47D KBluc cells
Format: cell-based, human
Conditions: 1 µM; relative to 1nM estradiol
Criterion: % ER Induction strictly less than 10%. Met: true (1). Not met: false (0).

{"columns": ["molecule", "category"],
 "data": [
  ["O=c1cc(-c2ccc(O)c(O)c2)oc2ccccc12 [3′,4′-dihydroxyflavone]", "true (1)"],
  ["O=c1c(O)c(-c2ccc(O)c(O)c2)oc2cc(O)cc(O)c12 [3,5,7,3′,4′-pentahydroxyflavone]", "true (1)"],
  ["O=c1c(O)c(-c2ccccc2)oc2ccc(O)cc12 [3,6-dihydroxyflavone]", "false (0)"],
  ["O=c1c(-c2ccc(O)cc2)coc2cc(O)cc(O)c12 [5,7,4′-trihydroxyisoflavone]", "false (0)"],
  ["O=c1c(-c2ccc(O)cc2)coc2cc(O)ccc12 [7,4′-dihydroxyisoflavone]", "false (0)"],
  ["O=c1cc(-c2ccc(O)cc2)oc2cc(O)ccc12 [7,4′-dihydroxyflavone]", "false (0)"],
  ["O=c1cc(-c2ccc(O)c(O)c2)oc2cccc(O)c12 [5,3′,4′-trihydroxyflavone]", "true (1)"],
  ["O=c1cc(-c2ccc(O)cc2)oc2ccc(O)cc12 [6,4′-dihydroxyflavone]", "false (0)"]
]}

Please turn your attention to the following entry.
For COc1ccc(-c2cc(=O)c3cc(O)ccc3o2)cc1 [6-hydroxy,4′-methoxyflavone] , is the recorded % ER Induction below the cut-off of 10%?
false (0)

---

Biological target: UniProt P06401
Sequence (P06401 679-933 limits assumed): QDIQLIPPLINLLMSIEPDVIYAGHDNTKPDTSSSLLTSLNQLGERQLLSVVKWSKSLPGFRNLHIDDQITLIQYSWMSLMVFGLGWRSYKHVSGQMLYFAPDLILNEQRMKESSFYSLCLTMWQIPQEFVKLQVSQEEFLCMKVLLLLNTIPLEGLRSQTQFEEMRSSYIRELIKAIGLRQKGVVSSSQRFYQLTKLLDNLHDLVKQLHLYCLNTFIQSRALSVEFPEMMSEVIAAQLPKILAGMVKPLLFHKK
Assay: PR-mediated induction of transcription by R5020 in T47D K5pLuc cells (luciferase reporter and endogenous alkaline phosphatase)
Assay type: cell-based
Conditions: T47D, 4 µM; AP (alkaline phosphatase); R5020 1.0 nM
measured.metric: inhibition at 4 µM (%)
Dear colleague, please return just the value in %, with no unit written.

Completed entries (count: 3):
{"columns": ["molecule", "measured.metric", "units", "assay.result"],
 "data": [
  ["O=C1CC(c2ccc(O)c(O)c2)Oc2cc(O)cc(O)c21 (stereo not shown) [5,7,3′,4′-tetrahydroxyflavanone]", "inhibition at 4 µM", "%", 8],
  ["O=c1cc(-c2ccc(O)cc2)oc2ccc(O)cc12 [6,4′-dihydroxyflavone]", "inhibition at 4 µM", "%", 39],
  ["O=C1CC(c2ccc(O)cc2)Oc2cc(O)cc(O)c21 (stereo not shown) [5,7,4′-trihydroxyflavanone]", "inhibition at 4 µM", "%", 43]
]}

Consider now this further molecule.
Output inhibition at 4 µM of O=c1c(-c2ccc(O)cc2)coc2cc(O)cc(O)c12 [5,7,4′-trihydroxyisoflavone]
49

---

Target: glucocorticoid receptor (GR) (Rattus norvegicus)
Construct: host or cells: T47D (A1-2)
Test: GR-mediated induction of transcription by dexamethasone in T47D (A1-2) cells (luciferase reporter and endogenous alkaline phosphatase)
Type: cell-based, human
Details: T47D, 8 µM; LUC (luciferase); dexamethasone 1.0 nM; read-out: % Inhibition of GR Induction
Lab note: anything with inhibition at 8 µM at or over -20% counts as MET; the rest go in NOT MET.

{"columns": ["compound", "category"],
 "data": [
  ["O=c1cc(-c2ccc(O)cc2)oc2ccccc12 [4′-hydroxyflavone]", "NOT MET"],
  ["O=c1cc(-c2ccc(O)cc2)oc2cccc(O)c12 [5,4′-dihydroxyflavone]", "MET"],
  ["O=c1cc(-c2ccc(O)c(O)c2)oc2cc(O)ccc12 [7,3′,4′-trihydroxyflavone]", "NOT MET"],
  ["O=c1cc(-c2ccc(O)c(O)c2)oc2ccccc12 [3′,4′-dihydroxyflavone]", "MET"],
  ["O=c1c(-c2ccc(O)cc2)coc2cc(O)ccc12 [7,4′-dihydroxyisoflavone]", "NOT MET"]
]}

Is reported inhibition at 8 µM greater than or equal to -20% here: O=c1cc(-c2ccccc2)oc2cc(O)cc(O)c12 [5,7-dihydroxyflavone]
MET

Is it the case that O=c1cc(-c2ccccc2)oc2ccccc12 [flavone] has inhibition at 8 µM reaching or exceeding -20%?
NOT MET

Tell me whether inhibition at 8 µM is at least -20% here: O=c1cc(-c2ccc(O)cc2)oc2ccc(O)cc12 [6,4′-dihydroxyflavone]
NOT MET

Hi team, for O=c1cc(-c2ccccc2)oc2cccc(O)c12 [5-hydroxyflavone] , is the recorded inhibition at 8 µM at or above -20%?
NOT MET

This collection of values is drawn from paper PMC11940309.
